The reported measurements were obtained from the kinase profiling compilation of Christmann-Franck et al. (2016).

- assayed target: PRKCH (human) (UniProt P24723)
- Sequence (P24723 whole entry, looked up): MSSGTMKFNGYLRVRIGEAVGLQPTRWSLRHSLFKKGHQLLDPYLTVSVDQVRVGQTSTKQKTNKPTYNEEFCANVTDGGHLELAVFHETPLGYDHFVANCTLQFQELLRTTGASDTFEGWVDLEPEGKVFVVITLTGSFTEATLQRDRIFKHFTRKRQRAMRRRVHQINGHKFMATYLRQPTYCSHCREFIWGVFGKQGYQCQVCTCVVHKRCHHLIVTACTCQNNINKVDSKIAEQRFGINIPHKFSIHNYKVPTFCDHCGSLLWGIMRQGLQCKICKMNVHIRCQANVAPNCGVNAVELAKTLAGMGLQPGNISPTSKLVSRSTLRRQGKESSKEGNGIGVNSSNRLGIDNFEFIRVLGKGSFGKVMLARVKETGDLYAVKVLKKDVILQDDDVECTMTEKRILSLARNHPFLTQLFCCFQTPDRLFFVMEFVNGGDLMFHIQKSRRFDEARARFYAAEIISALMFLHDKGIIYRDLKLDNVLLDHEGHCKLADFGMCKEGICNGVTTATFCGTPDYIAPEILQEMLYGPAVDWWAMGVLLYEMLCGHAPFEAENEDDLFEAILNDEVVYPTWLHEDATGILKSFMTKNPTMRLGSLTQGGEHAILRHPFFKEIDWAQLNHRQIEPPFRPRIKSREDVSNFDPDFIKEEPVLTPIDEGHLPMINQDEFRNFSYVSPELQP
- procedure summary: radiometric filter-binding kinase assay, Kinase HotSpot
- protocol conditions: compound 0.5 µM; ATP 10 µM

| smiles notation | assayed target | residual activity, % |
| --- | --- | --- |
| O=c1c2ccccc2[nH]c(=S)n1CCN1CCC(=C(c2ccc(F)cc2)c2ccc(F)cc2)CC1 | PRKCH (human) (UniProt P24723) | 102 |
| Nc1ncnc2c1cnn2-c1ccccc1 | PRKCH (human) (UniProt P24723) | 94.8 |
| N#C/C(=C1/Nc2ccccc2S1)c1ccnc(NCCc2cccnc2)n1 | PRKCH (human) (UniProt P24723) | 98.7 |
| CC(C)(C)n1nc(Cc2cccc3ccccc23)c2c(N)ncnc21 | PRKCH (human) (UniProt P24723) | 92.1 |
| CCCCc1c(-c2ccc(O)cc2)[nH]c2nccnc12 | PRKCH (human) (UniProt P24723) | 90.5 |
| N#Cc1c(NC(=O)c2cccc3ccccc23)sc2c1CCCC2 | PRKCH (human) (UniProt P24723) | 97.9 |
| COc1cc2c(N3CCN(C(=O)Nc4ccc(OC(C)C)cc4)CC3)ncnc2cc1OCCCN1CCCCC1 | PRKCH (human) (UniProt P24723) | 108 |
| O=C(c1ccccc1)c1ccc(N2CCOCC2)cc1O | PRKCH (human) (UniProt P24723) | 70 |
| COc1cccc(-c2cc(=O)c3ccccc3o2)c1N | PRKCH (human) (UniProt P24723) | 87 |
| O=c1cc(N2CCOCC2)oc2c(-c3ccccc3)cccc12 | PRKCH (human) (UniProt P24723) | 99 |
| CCOc1cc2ncnc(Nc3cccc(Br)c3)c2cc1OCC | PRKCH (human) (UniProt P24723) | 94.9 |

###

- assayed target: ERBB2 (human) (UniProt P04626)
- Sequence (P04626 whole entry, looked up): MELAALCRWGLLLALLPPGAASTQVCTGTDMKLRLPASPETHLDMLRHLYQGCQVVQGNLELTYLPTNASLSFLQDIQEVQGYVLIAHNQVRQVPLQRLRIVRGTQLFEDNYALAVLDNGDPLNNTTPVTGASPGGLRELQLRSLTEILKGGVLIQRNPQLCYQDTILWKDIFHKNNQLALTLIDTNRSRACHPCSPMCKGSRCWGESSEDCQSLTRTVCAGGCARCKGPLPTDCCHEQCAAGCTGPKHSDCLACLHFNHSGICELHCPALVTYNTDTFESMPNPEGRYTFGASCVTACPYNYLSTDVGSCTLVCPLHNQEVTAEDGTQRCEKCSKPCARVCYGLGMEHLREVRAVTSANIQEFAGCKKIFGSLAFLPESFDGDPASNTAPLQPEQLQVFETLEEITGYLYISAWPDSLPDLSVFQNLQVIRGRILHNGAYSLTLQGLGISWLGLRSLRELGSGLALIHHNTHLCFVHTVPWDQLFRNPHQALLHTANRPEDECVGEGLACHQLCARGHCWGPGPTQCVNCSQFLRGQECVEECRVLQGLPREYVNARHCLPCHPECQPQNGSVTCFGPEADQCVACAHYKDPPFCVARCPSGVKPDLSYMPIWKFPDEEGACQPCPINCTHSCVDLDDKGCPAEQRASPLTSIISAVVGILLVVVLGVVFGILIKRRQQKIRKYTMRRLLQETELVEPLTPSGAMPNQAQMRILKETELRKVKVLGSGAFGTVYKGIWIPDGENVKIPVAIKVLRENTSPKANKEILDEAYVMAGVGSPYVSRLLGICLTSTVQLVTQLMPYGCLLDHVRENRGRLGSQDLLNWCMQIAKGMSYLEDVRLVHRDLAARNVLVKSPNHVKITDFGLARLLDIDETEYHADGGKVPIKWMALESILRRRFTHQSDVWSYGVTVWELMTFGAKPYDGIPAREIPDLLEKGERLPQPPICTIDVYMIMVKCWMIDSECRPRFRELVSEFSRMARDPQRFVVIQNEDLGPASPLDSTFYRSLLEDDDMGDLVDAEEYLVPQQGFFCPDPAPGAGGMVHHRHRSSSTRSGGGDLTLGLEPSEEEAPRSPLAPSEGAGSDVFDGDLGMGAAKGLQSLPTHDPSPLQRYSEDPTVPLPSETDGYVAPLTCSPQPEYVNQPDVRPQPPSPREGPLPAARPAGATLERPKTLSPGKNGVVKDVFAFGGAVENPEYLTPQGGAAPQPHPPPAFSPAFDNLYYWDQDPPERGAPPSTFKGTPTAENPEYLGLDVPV
- procedure summary: radiometric filter-binding kinase assay, Kinase HotSpot
- protocol conditions: compound 0.5 µM; ATP 10 µM

| smiles notation | value units | residual activity |
| --- | --- | --- |
| COc1cc2c(Nc3ccc(Br)cc3F)ncnc2cc1OCC1CCN(C)CC1 | % | 72.2 |
| CCCCc1c(-c2ccc(O)cc2)[nH]c2nccnc12 | % | 97.7 |
| O=c1cc(N2CCOCC2)oc2c(-c3ccccc3)cccc12 | % | 104 |
| N#C/C(=C1/Nc2ccccc2S1)c1ccnc(NCCc2cccnc2)n1 | % | 104 |
| Cn1cc(/C=C2\C(=O)Nc3ccc(S(N)(=O)=O)cc32)c2ccccc21 | % | 120 |
| O=c1c(-c2ccc(F)cc2)c(-c2ccncc2)[nH]n1-c1ccc(Cl)cc1 | % | 103 |
| O=C(O)c1ccc2c3c1cccc3c(=O)n1c3ccccc3nc21 | % | 99.7 |
| c1ccc(-c2cnc(Nc3ccc(OCCN4CCCC4)cc3)s2)cc1 | % | 101 |
| COc1cc2ncnc(Nc3ccc(O)c(Br)c3)c2cc1OC | % | 33.1 |

###

- assayed target: CLK4 (human) (UniProt Q9HAZ1)
- Sequence (Q9HAZ1 whole entry, looked up): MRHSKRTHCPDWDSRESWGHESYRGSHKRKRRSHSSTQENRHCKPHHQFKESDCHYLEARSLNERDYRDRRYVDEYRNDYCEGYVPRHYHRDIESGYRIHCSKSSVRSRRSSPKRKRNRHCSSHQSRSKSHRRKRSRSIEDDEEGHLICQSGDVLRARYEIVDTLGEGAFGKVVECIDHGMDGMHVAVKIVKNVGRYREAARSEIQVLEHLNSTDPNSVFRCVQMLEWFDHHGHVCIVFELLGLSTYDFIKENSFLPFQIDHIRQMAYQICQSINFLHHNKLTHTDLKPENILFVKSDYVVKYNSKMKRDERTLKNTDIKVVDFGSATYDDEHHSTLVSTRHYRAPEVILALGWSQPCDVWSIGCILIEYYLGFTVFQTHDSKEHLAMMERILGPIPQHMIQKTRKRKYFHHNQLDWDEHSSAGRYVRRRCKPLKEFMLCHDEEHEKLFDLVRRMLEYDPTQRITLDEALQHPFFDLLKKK
- procedure summary: radiometric filter-binding kinase assay, Kinase HotSpot
- protocol conditions: compound 0.5 µM; ATP 10 µM
Label Condition met when residual activity is at or above 80%; otherwise label Condition not met.

| smiles notation | label value |
| --- | --- |
| COc1cc2ncnc(Nc3ccc(O)c(Br)c3)c2cc1OC | Condition met |
| Cn1cc(/C=C2\C(=O)Nc3ccc(S(N)(=O)=O)cc32)c2ccccc21 | Condition not met |
| N#Cc1c(NC(=O)c2cccc3ccccc23)sc2c1CCCC2 | Condition met |
| O=c1cc(N2CCOCC2)oc2c(-c3ccccc3)cccc12 | Condition met |
| O=c1[nH]c2ccccc2n1C1CCN(Cc2ccc(-c3nc4cc5[nH]cnc5cc4nc3-c3ccccc3)cc2)CC1 | Condition met |
| O=C(c1ccccc1)c1ccc(N2CCOCC2)cc1O | Condition met |
| CCCCc1c(-c2ccc(O)cc2)[nH]c2nccnc12 | Condition not met |
| COc1cc2c(N3CCN(C(=O)Nc4ccc(OC(C)C)cc4)CC3)ncnc2cc1OCCCN1CCCCC1 | Condition met |
| CCc1nc(-c2ccc(OC)cc2)[nH]c1-c1ccncc1 | Condition met |
| Nc1ncnc2c1cnn2-c1ccccc1 | Condition not met |
| FC(F)(F)c1ccc(/C=C/c2nc(COc3ccc(CCCCn4ccnn4)cc3)co2)cc1 | Condition met |
| c1ccc(-c2cnc(Nc3ccc(OCCN4CCCC4)cc3)s2)cc1 | Condition met |
| O=C1NC(=O)c2c1c1c3ccccc3[nH]c1c1[nH]c3cc(Br)ccc3c21 | Condition not met |
| N#C/C(=C1/Nc2ccccc2S1)c1ccnc(NCCc2cccnc2)n1 | Condition not met |
| N/C(=N\N=C/c1ccc(-c2cccc([N+](=O)[O-])c2)o1)N[N+](=O)[O-] | Condition met |
| O=S(=O)(NCCNC/C=C/c1ccc(Br)cc1)c1cccc2cnccc12 | Condition met |
| O=C1NC(=O)c2cc(Nc3ccc(F)cc3)c(Nc3ccc(F)cc3)cc21 | Condition met |
| O=c1c2ccccc2[nH]c(=S)n1CCN1CCC(=C(c2ccc(F)cc2)c2ccc(F)cc2)CC1 | Condition met |
| CN[C@@H]1C[C@H]2O[C@@](C)([C@@H]1OC)n1c3ccccc3c3c4c(c5c6ccccc6n2c5c31)C(=O)NC4 | Condition not met |
| CCOc1cc2ncnc(Nc3cccc(Br)c3)c2cc1OCC | Condition met |
| N#CCCc1ccc2c(c1)-c1[nH]c3ccc([N+](=O)[O-])cc3c1CC(=O)N2 | Condition not met |
